target: Glucose-dependent insulinotropic receptor (Homo sapiens) (UniProt Q8TDV5)
test: Activation of human GPR119 expressed in CHOK1 cells harboring CRE-luciferase at 1 uM after 6 hrs by luciferase reporter gene assay relative to GSK1292263
Assay type: functional, cell-based
observation.type: Activity (%)
Reply with just the number (in %).

What value of Activity has been recorded for this entry: CON(C)C(=O)c1ccc(-c2ccc(OCC3CCN(C(=O)OC(C)C)CC3)cn2)cc1F 96

What value of Activity has been recorded for this entry: CCc1cnc(N2CCC(COc3ccc(-c4ccc(C(=O)N(C)OC)c(F)c4)nc3)CC2)nc1 100

What value of Activity has been recorded for this entry: CC(C)OC(=O)N1CCC(N(C)c2ncnc3c(-c4ccc(C(=O)NOCc5ccccc5)cc4)csc23)CC1 53

What value of Activity has been recorded for this entry: CONC(=O)c1ccc(-c2csc3c(N(C)C4CCN(C(=O)OC(C)(C)C)CC4)ncnc23)cc1 82

What value of Activity has been recorded for this entry: CON(C)C(=O)c1ccc(-c2csc3c(N(C)C4CCN(C(=O)OC(C)(C)C)CC4)ncnc23)cc1 105

What value of Activity has been recorded for this entry: CCc1cnc(N2CCC(Oc3ncnc4c(-c5ccc(C(=O)N(C)OC)cc5)csc34)CC2)nc1 82

What value of Activity has been recorded for this entry: CN(c1ncnc2c(-c3ccc(C(=O)N4CCCCO4)cc3)csc12)C1CCN(C(=O)OC(C)(C)C)CC1 66

What value of Activity has been recorded for this entry: CON(C)C(=O)c1ccc(-c2csc3c(N(C)C4CCN(C(=O)OC(C)C)CC4)ncnc23)cc1 82

What value of Activity has been recorded for this entry: CCc1cnc(N2CCC(N(C)c3ncnc4c(-c5ccc(C(=O)N(C)OC)c(F)c5)csc34)CC2)nc1 81

What value of Activity has been recorded for this entry: CN(c1ncnc2c(-c3ccc(C(=O)NOCc4ccccc4)cc3)csc12)C1CCN(C(=O)OC(C)(C)C)CC1 81

What value of Activity has been recorded for this entry: CCONC(=O)c1ccc(-c2csc3c(N(C)C4CCN(C(=O)OC(C)(C)C)CC4)ncnc23)cc1 73

What value of Activity has been recorded for this entry: CC(C)(C)OC(=O)N1CCC(COc2ccc(-c3ccc(C(=O)NOCc4ccccc4)cc3)nc2)CC1 69

What value of Activity has been recorded for this entry: CON(C)C(=O)c1ccc(-c2csc3c(N(C)C4CCN(C(=O)OC(C)C)CC4)ncnc23)cc1F 90

What value of Activity has been recorded for this entry: CCc1cnc(N2CCC(COc3ccc(-c4ccc(C(=O)N(C)OC)cc4)nc3)CC2)nc1 95

What value of Activity has been recorded for this entry: CCc1cnc(N2CCC(N(C)c3ncnc4c(-c5ccc(C(=O)NOCc6ccccc6)cc5)csc34)CC2)nc1 41

What value of Activity has been recorded for this entry: CON(C)C(=O)c1ccc(-c2ccc(OCC3CCN(C(=O)OC(C)(C)C)CC3)cn2)cc1F 114

What value of Activity has been recorded for this entry: CCc1cnc(N2CCC(Oc3ncnc4c(-c5ccc(C(=O)N(C)OC)c(F)c5)csc34)CC2)nc1 100

What value of Activity has been recorded for this entry: CCc1cnc(N2CCC(N(C)c3ncnc4c(-c5ccc(C(=O)N(C)OC)cc5)csc34)CC2)nc1 80

---

target: UniProtKB Q8TDV5
Sequence (Q8TDV5 whole entry): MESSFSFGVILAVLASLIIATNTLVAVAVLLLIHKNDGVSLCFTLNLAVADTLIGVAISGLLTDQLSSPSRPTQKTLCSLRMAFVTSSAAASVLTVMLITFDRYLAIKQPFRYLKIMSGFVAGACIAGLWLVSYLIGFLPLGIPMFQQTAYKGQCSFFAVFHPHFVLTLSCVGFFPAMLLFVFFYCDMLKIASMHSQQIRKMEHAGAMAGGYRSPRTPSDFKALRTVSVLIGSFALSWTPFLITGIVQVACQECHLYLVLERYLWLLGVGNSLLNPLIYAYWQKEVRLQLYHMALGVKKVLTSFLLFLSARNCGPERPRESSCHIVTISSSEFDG
test: Agonist activity at human GPR119 expressed in CHOK1 cells harboring CRE-luciferase after 6 hrs by luciferase reporter gene assay
observation.type: EC50 (nM)
Reply with just the number (in nM).

What value of EC50 has been recorded for this entry: CON(C)C(=O)c1ccc(-c2csc3c(OC4CCN(C(=O)OC(C)(C)C)CC4)ncnc23)cc1 64

What value of EC50 has been recorded for this entry: CON(C)C(=O)c1ccc(-c2ccc(OCC3CCN(C(=O)OC(C)(C)C)CC3)cn2)cc1F 73

What value of EC50 has been recorded for this entry: CON(C)C(=O)c1ccc(-c2ccc(OCC3CCN(C(=O)OC(C)C)CC3)cn2)cc1F 92

What value of EC50 has been recorded for this entry: CON(C)C(=O)c1ccc(-c2csc3c(OC4CCN(C(=O)OC(C)(C)C)CC4)ncnc23)cc1F 57

Source listed as ChEMBL document CHEMBL4052726.
